Assay: in vivo
Settings: male, Sprague-Dawley, rat, po, 10 mg/kg
Description: Tmax in male Sprague-Dawley rat at 10 mg/kg, po measured up to 24 hrs by HPLC analysis
ASSAY ENDPOINT: Tmax at 24 h (min)

>>> value_observed("O=C1C[C@@H](c2ccc(O)c(O)c2)Oc2cc(O)cc(O)c21")
30

###

Test: in vitro
Settings: human, liver microsomes
Description: Metabolic stability in human liver microsomes assessed as intrinsic clearance per mg protein at 1 uM by HPLC analysis
ASSAY ENDPOINT: microsomal CLint at 1 µM

>>> value_observed("O=C1C[C@@H](c2ccc(O)c(O)c2)Oc2cc(O)cc(O)c21 [ERIODICTYOL]")
"< 7.4 µL/min/mg"

###

Target: Alpha-ketoglutarate-dependent dioxygenase FTO (Homo sapiens, UniProt Q9C0B1)
Sequence (Q9C0B1 whole entry): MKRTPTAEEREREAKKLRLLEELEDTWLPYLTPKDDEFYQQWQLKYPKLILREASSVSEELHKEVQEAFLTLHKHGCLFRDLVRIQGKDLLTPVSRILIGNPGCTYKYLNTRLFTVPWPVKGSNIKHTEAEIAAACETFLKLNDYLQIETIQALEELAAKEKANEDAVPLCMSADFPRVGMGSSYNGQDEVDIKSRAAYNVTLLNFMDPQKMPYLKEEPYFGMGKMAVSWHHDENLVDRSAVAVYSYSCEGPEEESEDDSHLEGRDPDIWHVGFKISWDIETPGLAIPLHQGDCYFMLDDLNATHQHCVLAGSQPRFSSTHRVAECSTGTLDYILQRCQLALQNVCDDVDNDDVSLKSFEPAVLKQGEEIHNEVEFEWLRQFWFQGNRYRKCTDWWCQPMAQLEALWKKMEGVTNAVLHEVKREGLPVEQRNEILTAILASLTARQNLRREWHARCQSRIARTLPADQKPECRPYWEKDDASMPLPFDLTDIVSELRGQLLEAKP
Test: Binding affinity to GFP-tagged FTO (unknown origin) assessed as dissociation constant by microscale thermophoresis analysis
Documented Kd across a set of compounds
ASSAY ENDPOINT: Kd (µM)

>>> value_observed("O=C1C[C@@H](c2ccc(O)c(O)c2)Oc2cc(O)cc(O)c21")
2.8
>>> value_observed("O=c1c(O)c(-c2cc(O)c(O)c(O)c2)oc2cc(O)cc(O)c12")
34

Where do these numbers come from? They come from ChEMBL document CHEMBL6109136.
